Reference source for all entries: PubChem BioAssay (EPA / NIEHS)

Read-out: MicroRNA 122 (MIR122), gene 406906
Assay: LTEA_HepaRG_MIR122: Life Technologies and Expression Analysis (LTEA) Assay for MicroRNA 122 (MIR122) using HepaRG (AID 2283516); further: the transcript read is the microRNA miR-122
Details: mRNA level, 48 h; actives raise or lower the signal
The source made the active and inactive calls. How the source made its calls: active means hit-call score of the fitted dose curve at least 0.9, where 1 is the maximum; inactive means score below 0.9.
Readout label: AC50

COC(=O)c1ccccc1N	inactive
Cc1cccc(N)c1N	50 µM (active)
O=C(Nc1ccccc1)c1ccccc1I	50 µM (active)
CC(C)(C)OOC(=O)c1ccccc1	inactive
Nc1ccc(Oc2ccc(N)cc2)cc1	inactive
ClCCOCCCl	inactive
OCCCl	inactive
CN(C)[C@@H]1C(=O)C(C(N)=O)=C(O)[C@@]2(O)C(=O)C3=C(O)c4c(O)cccc4[C@@](C)(O)[C@H]3C[C@@H]12	inactive

Consider O=C(N[C@H](c1ccccc1)[C@@H]1CN2CCC1CC2)c1c(Cl)ccc(C(F)(F)F)c1Cl . Its measured AC50 is 46.2 µM (active)

Consider Nc1ccc(Cc2ccc(N)cc2)cc1 . Its measured AC50 is inactive

Consider c1ccc2c(c1)-c1cccc3cccc-2c13 . Its measured AC50 is inactive

Consider CCCCCCCCCCCCCN1CC(C)OC(C)C1 (stereo unspecified) . Its measured AC50 is inactive

Consider OCCOCCO . Its measured AC50 is inactive

Consider Oc1ccc2ccc3cccc4ccc1c2c34 . Its measured AC50 is inactive

Consider C1=Cc2cccc3cccc1c23 . Its measured AC50 is inactive

Consider OCCCBr . Its measured AC50 is inactive

Consider C[C@]12C=CC3=C4CCC(=O)C=C4CC[C@H]3[C@@H]1CC[C@@H]2O . Its measured AC50 is 69.6 µM (active)

Consider CC(C)COC(=O)c1ccccc1C(=O)OCC(C)C . Its measured AC50 is inactive

Consider Clc1ccc(C(c2ccc(Cl)cc2)C(Cl)(Cl)Cl)cc1 . Its measured AC50 is inactive

Consider CCC12COCN1COC2 . Its measured AC50 is inactive

---

Assay: ATG_VDRE_CIS: Attagene CIS-FACTORIAL HepG2 Assay for human Vitamin D Receptor Element (VDRE) (AID 2282968)
Conditions: HepG2 VDRE cis-reporter transcription, actives raise or lower the signal
Protocol: ATG_CIS is a cell-based, multiplexed-readout assay that uses HepG2, a human liver cell line, with measurements taken at 24 hours after chemical dosing in a 24-well plate.ATG_VDRE_CIS is one of 52 assay component(s) measured or calculated from the ATG_CIS assay. […] This assay endpoint, ATG_VDRE_CIS, was analyzed with bidirectional fitting relative to DMSO as the negative control and baseline of activity. […]
Activity calls are given as the source filed them. Rule for the calls: active = hit-call score of the fitted dose curve at least 0.9, where 1 is the maximum; inactive = score below 0.9.
Use one of these outcomes when replying: active, inactive

CN(C)c1ccccc1	inactive
O=C(N[C@H](c1ccccc1)[C@@H]1CN2CCC1CC2)c1c(Cl)ccc(C(F)(F)F)c1Cl	inactive

Query: recorded result category for C1=Cc2cccc3cccc1c23 in this test
inactive

Query: recorded result category for O=C1CCCO1 in this test
inactive

Query: recorded result category for Cc1cccc(N)c1N in this test
active

Query: recorded result category for Nc1ccc(Cc2ccc(N)cc2)cc1 in this test
inactive

Query: recorded result category for Nc1ccc(Cl)cc1N in this test
active

Query: recorded result category for CN(C)c1ccc(C(=O)c2ccc(N(C)C)cc2)cc1 in this test
inactive

Query: recorded result category for [O-][Cl+]O in this test
inactive

Query: recorded result category for OCCCl in this test
inactive
